test: Pancreas uptake and pancreas to liver ratio in Balb/c mice (radioiodine biodistribution); format: in vivo; conditions: 30 minutes after administration; I-125 label, 20 μg i.v., male Balb/c mice; mean ± standard deviation
Readout label: P/L (percent dose in pancreas / percent dose in liver)

Reference set, count: 3
Given the compound Cc1cc([125I])cc(CN(C)CCCN2CCOCC2)c1O [ERC 9] , what is its reported P/L (percent dose in pancreas / percent dose in liver)?
0.61

Given the compound Cc1cc([125I])cc(CN(C)CCCN2CCCC2)c1O [ERC 46] , what is its reported P/L (percent dose in pancreas / percent dose in liver)?
0.54

Given the compound Cc1cc([125I])cc(CN(C)CCCN2CCCCC2)c1O [ERC 90] , what is its reported P/L (percent dose in pancreas / percent dose in liver)?
0.50

A: Cc1cc([125I])cc(CN(C)CCCN(C)C)c1O [HIPDM, reference compound]
B: CCN(CC)CCCN(C)Cc1cc([125I])cc(C)c1O [ERC 94]
Parameter metric = P/L (percent dose in pancreas / percent dose in liver). Return the lower-valued option from A and B . Use the label to indicate which entry you chose.
A
(A: 0.32, B: 0.61)
